- assay remarks: yeast display, Sf9 membrane polyspecificity reagent, FACS + sequencing; frameworks hold sequencing errors

{"columns": ["sequence string", "polyreactivity (PSR sort gate)"],
 "data": [
  ["QVQLVESGGGLVQAGGSLRLSCAASGRTFRSYTMGWYRQAPGKERELVASITRSGVSTYYADSVKGRFTISRDNAKNTVYLQMNSLKPEDTAVYYCAAYSVFRSYDYWGQGTQVTVSS", "high polyreactivity"],
  ["QVQLVESGGGLVQAGGSLRLSCAASGRTFSKYAMGWYRQAPGKERELVASITRSGGSTNYADSVKGRFTISRDNAKNTVYLQINSLKPEDTAVYYCRRKLGRTHASGFDYWGQGTQVTVSS", "low polyreactivity"],
  ["QVQLVESGGGLVQAGGSLRLSCAASGSTIYYYALGWYRQAPGKERELVAAISWSGASTFYADSVKGRFTISRDNAKNTVDLKMNSLKPVDTAVYYCAAVIKGWGQGTQVTVSS", "high polyreactivity"],
  ["QVQLVESGGGLVQAGGSLRLSCAASGSTFKLYAMGWYRPAPGKERELVAAISYRGGTTYYADSVKGRFTISRDNAKNSVYLQMNSLKPEDTAVYYCAAGWRPRYLRDASKYDYWGQGTQVTVSS", "low polyreactivity"],
  ["QVQLVESGGGLVQAGGSLRLSCAASGRIFVINAMGWYRQAPGKERELVADITWSGGSTYADSVKGRFTISRDNAKNTVYLLMNSLNPADTAVSYCAAVYLRVDRYLQVYRYDYWGQGTQVTVSS", "high polyreactivity"],
  ["QFQLVESAVVLVQAGGSLRLSCAASGGIFGSYAMGWYRQAPGKEMEFVAAIRYGSGSQYYADSVKGRFTISRDNAKNTVYLQMNSLKPEDTAVYYCATEYWGVYGYGFIYDYWGQGTQVTVSS", "low polyreactivity"],
  ["QVQLVESGGGLVQAGGSLRLSCAASGSIYWLYAMGWYRQAPGKERELVAAIDSGDSTKNADSVKGRFTISRDNAKNTVYLQMNSLKPEDTAVYYCNASRRYHVRAPYDYWGQGTHVTVSS", "low polyreactivity"],
  ["QVQLVESGGGLVQAGGSLRLSCAASGFIFGVYDMGWYRQAPGKERELVAAIDSVGSTYYADSVKGRFTISRDNAKNTVYFQMNSLKPEDTAGYYCNAARSRLYYVKYYYWGQGTQVTVSS", "low polyreactivity"],
  ["QVQLQESGGGLVKAGGSLRLSCAASGSIFYWPWMGWYRQAPGREREFVATITTGSNTYYADSMKGHLTISRDNARNTVYLQMNSLKPEDTAVYYCAVVGDGELEHRYWGQGTQVTVSS", "high polyreactivity"],
  ["QVQLVESGGGLVQAGGSLRLSCAASGYIYQRNAMGWYRQAPGKERELVARINYRGGSFYADSVKGRCTISRDNAKNTGYLQMNSLKPEDTAVYYCAARTSGDMYSWGQGTQVTVSS", "high polyreactivity"],
  ["QVQLEESAGGLVQAGGSLRLSCAASGSIFRVYGMGWYRQAPGKVTELVASITYRGGNTYYADSVKGRFTISRDNAKNTVYVQMNSLKPEDTAVFDCARSGYQKVGGFRSDYWGQGTEVTVSS", "low polyreactivity"]
]}

---

- assay remarks: yeast display, Sf9 membrane polyspecificity reagent, FACS + sequencing; frameworks hold sequencing errors
value type: polyreactivity (PSR sort gate)

{"columns": ["sequence string", "observed measurement"],
 "data": [
  ["QVQLVESGGGLVQAGGSLRLSCAASGSTFPGYAMGWYRQAPGKERELVAAISTSGGRTYYADSVKGRFTISRDNAKNTVYLQMNSLKPEDTAVYYCAADASTWYTEEYWGQGTQVTVSS", "low polyreactivity"],
  ["QVQLVESGGGLVQAGCSLRLSCAASGSTLDGNAMGWYRQPPGKERELVAAISVSGGTTYYADSVKGRFTISRDNAKNNVYLQMNSLKREDTAVYYCSTEWRPRYYGTEPFDSWGQGTQVTVSS", "high polyreactivity"],
  ["QVQLVESGGGLVQAGGSLRLSCAASGSTFRANVMGWYRQAPGKEWELVAAITSGGGSTYYADSVKGRFTISRDNAKNTVYLQMNSLKPEDTAVYYCATKRARYSYYYWGQGTQVTVSS", "high polyreactivity"],
  ["QVQLVESGGGLVQAGGSLRLSCAASGSTFTRYVMGWYRQAPGKERELVAAISKRGGSTYYADSVKGRFTISRDNAKHTVYLQMNSLKPVDPAVYYCNRVSRAPFDYWGQGTQVTVSS", "high polyreactivity"],
  ["QVQLVESGGGLVQAGGSLRLSCAASGSILYISARGWYRQAPGKERELVASINSGASTNYADSVKGRFTISRDNAKNTVYLQMNSLKPEDTAVYYCAKSIVNPPHGFKDFDYWGQGTQVTLSS", "low polyreactivity"],
  ["QVQLVESGGGLVQAGGSLRLSCAASGSTSPDNAMGWYRPAQGKERELVAAISSGGYTYADSVKGRFTISRDNAKNTVYLQMNSLKPEDTSVYYCAKDDLYSPAAGGGYWGEGTQVTVSS", "low polyreactivity"],
  ["QVQLVESGGGLVQAGGSLRLSCAASGSIVGYNAMGWYRQAPGKEWEFVAAISWSGGRTYYADSVKGRFTISRDNAKNTVYLQMNILKPEDTAVYYSAADVFFYVYEAYLLYYWGQRTQVTVSS", "low polyreactivity"],
  ["QVQLVESGGGLVQAGGSLRLSCAASGSTFLYYAMGWYRQAPRKESELVATITDGGSTNYSDSVKGRFTISRDNAKNTVDLQMNSLKPEDTAVYYCAKRQWRPTYRYGYWGQGTQVTVSS", "low polyreactivity"],
  ["QVQLVESGGLLVQAGGSIRITCAASGSTLWFNAMGWYRQAPGKERELVAAINWSGGSTYYADSVKGRFSISRDNAKITVYVQMTSLKPEDTAVYYCAAFYQYVHYVWYDYWGQGSQVTVSS", "low polyreactivity"],
  ["QVQLVESGGGLVQAGGSLRLSCAASGGIFGGYAMGWYRQAPGKEGELVAVITSGGSTYYADSVKGRFTISRDNAKNTVYLQMNSLKPEDTAVYYCAADGNSYSYSTYDYWGQGTQVTLSS", "low polyreactivity"],
  ["QVQLVESGGGLVQAGGSLRLSCAASGSTLVYNDMGWYRQAPGKEREFVAAIRSNDGSTYYADSVKGRFTISRDNAKNTVYLQMNSLKAEDTAVYYCNKDVWDGYDWPEFDYWGQGTQVTVSS", "low polyreactivity"],
  ["QVQRVESGGGLVQAGGSLRLSCAASGRIFSIYGMGWYRQAPGKERELVAVISGSVGITYYADSVKGRFTISRDNAKNTVYLQINSLKPEDTAVFYCNAKVRRRKYDYWGQGTQVTVSS", "high polyreactivity"],
  ["QVQLVESGGGLVQAGGSLRLSCAASGRIFVQNAMGWYRQAPGKERELVAAINWSVGSTYYADSVKGRFTISRDNAKNTVYLQMNSLKPEDTAVYYCAAGNLYYAEYDYWGQGTQVTVSS", "low polyreactivity"],
  ["QVQLVESGGGLVQAGGSLRLSCAASGFIFSRYAMGWYRQAPGKERELVAAITSGGGTYSADSVKGRFTISRDNAKNTVYLQMNSLKPEDTAVYYCAAGYGPTSTSSVRITAGDHWGQGTQVTVSS", "low polyreactivity"],
  ["QVQLVESGGGLVQAGGSLRLSCAASGSTSVQYAMGWYRQAPGKERELVAAIDRSGGSTSYADSVKGRFTISRDNAKHTVYLQMNSLKPEDTAVYYCNADVHNRGWPYDYWGQGTQVTVSS", "low polyreactivity"],
  ["QVHLVESGGGLVQAGGSLRLICAASGRILTFNAMGWYRQAPGKERELVAGINWSGDSTYYADSVKGRFTISRDNAKNTVYLQINSLKPEDTAFYYCTKYSYKAHFNYWGQGTQVTVSS", "low polyreactivity"],
  ["PVQLVESGGGLVQAGGSLRLSCAASGIIFYRNAMAWYRQAPGKERELVAAITSSGGRTYYAYSVKGRFTISRDNAKNTVYLQMNRLKPEDTAVYYCAATRLYWKIFYGDGDYWGQGTQVTVSS", "high polyreactivity"],
  ["QVQLVESGGGLVQAGGSLRLSCAASGFTFRVYAMGWYRQAPGKERELVAAITRGGSTKYADSVKGRFTISRDNAKNTVYLQMNSLKPEDTAVYYCAARYNGKLNWGQGTQVSVSS", "high polyreactivity"],
  ["QVQLVESGGGLVQAGGSLRLSCAASGFIFGAYAMGWYRQAPGKERELVAALSSRGGNTYYADSVKGRFTISRDNAKNTVYLQMNSLKPEDTAVYYCNAVGYARYLYVPPPYDYWGQGTQVTVSS", "high polyreactivity"],
  ["QVQLVESGGGLVQAGGSLRLSCAASGSTFGFYAMGGYRQAPGKERELVAAITSGDITYADSVKGRFTISRDNAKNTVYLQMNSLKPEDTAVYYCATTSYGYWFGYIPEVDYWGQGTQVSVSS", "low polyreactivity"],
  ["QVQLVESGGGLVQAGGSLRLSCAASGSILVRYAMGWYRQAPGKERELVAAITYSGGSTYYADSVKGRFTISRDNAKNTVYLQMNSLKPEDTAVYYCAADVWWSYYRYDYWGQGTQVTVSS", "low polyreactivity"]
]}
